Cited source for all entries: the supplement of paper PMC12667976

For each of the variants below, state its AIRE transcriptional activation functional score.
B1: library; numbered along this chain (parent)
chain: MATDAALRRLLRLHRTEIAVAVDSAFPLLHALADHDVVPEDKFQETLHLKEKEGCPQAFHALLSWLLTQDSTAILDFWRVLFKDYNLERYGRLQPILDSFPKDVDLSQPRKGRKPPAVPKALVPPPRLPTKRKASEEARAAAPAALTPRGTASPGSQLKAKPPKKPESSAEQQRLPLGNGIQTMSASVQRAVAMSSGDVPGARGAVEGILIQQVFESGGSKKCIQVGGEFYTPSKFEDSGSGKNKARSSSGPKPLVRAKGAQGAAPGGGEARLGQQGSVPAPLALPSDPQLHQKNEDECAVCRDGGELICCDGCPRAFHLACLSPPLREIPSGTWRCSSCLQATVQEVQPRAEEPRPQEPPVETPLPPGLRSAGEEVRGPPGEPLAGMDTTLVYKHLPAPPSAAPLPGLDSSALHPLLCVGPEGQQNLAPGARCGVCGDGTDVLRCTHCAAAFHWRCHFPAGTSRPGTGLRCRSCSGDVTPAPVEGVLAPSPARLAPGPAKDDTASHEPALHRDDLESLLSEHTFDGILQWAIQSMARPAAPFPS

Variants of: B1
Assay name: AIRE transcriptional activation functional score (insulin promoter-GFP; nonsense median 0, synonymous median 1) (normalised score); higher = higher AIRE activity (more reporter activation)
Stated conditions: with insulin promoter-GFP reporter in HEK293
Note: the reply should be a number with no unit written.

Note to self: AIRE transcriptional activation functional score recorded for T130G was 1.13

Note to self: AIRE transcriptional activation functional score recorded for K294Y was 0.634

Note to self: AIRE transcriptional activation functional score recorded for Q262N was 1.13

Note to self: AIRE transcriptional activation functional score recorded for K42I was 0.472

Note to self: AIRE transcriptional activation functional score recorded for L444C was 1.96

Note to self: AIRE transcriptional activation functional score recorded for T232D was 1.19

Note to self: AIRE transcriptional activation functional score recorded for T232F was -0.0868

Note to self: AIRE transcriptional activation functional score recorded for A142M was 0.975

Note to self: AIRE transcriptional activation functional score recorded for G527S was 0.639

Note to self: AIRE transcriptional activation functional score recorded for H292S was 0.599

Note to self: AIRE transcriptional activation functional score recorded for A205M was -0.0564
